# target_system: SpCyk3
# assay_remarks: SPOT peptide array binding signal intensity (averaged, normalized) (arbitrary units (background-subtracted, floor 0; scale differs between SH3 domains)); higher = stronger binding of the SH3 domain to the peptide
observable: SPOT peptide array binding signal intensity
Provide a numeric answer; units are not to be included.

Record "LEFRAILFIPKRAPF" , field SPOT peptide array binding signal intensity: 10.5

The binder listed as "FSRRQSMDIPSKNRN" shows SPOT peptide array binding signal intensity equal to 4

Record "TTAPALPSLPPPPLL" . Reported SPOT peptide array binding signal intensity: 1

Memo: "MARRRLPDRPPNGIG" , reported SPOT peptide array binding signal intensity: 221

Just so you know, measured SPOT peptide array binding signal intensity for "KRKRRLPVSEDTNTK" came out at 6.5

The origin of these recorded values is the supplement of paper PMC4466140.
